Data origin, for the record: patent US20100105723A1

Measured Attribute: Ki (nM)
Response body: numeric value in nM, unit text excluded.

Task item: Can you look up Ki on human A2B receptor (Homo sapiens) for O=c1[nH]c2cc(-c3c(F)cncc3F)c(-c3ccccc3F)nc2[nH]1 ?
Reply: 1.1

====

# Study System: human A1 receptor (Homo sapiens)
# Construct: host or cells: CHO
# Sequence (P30542 whole entry): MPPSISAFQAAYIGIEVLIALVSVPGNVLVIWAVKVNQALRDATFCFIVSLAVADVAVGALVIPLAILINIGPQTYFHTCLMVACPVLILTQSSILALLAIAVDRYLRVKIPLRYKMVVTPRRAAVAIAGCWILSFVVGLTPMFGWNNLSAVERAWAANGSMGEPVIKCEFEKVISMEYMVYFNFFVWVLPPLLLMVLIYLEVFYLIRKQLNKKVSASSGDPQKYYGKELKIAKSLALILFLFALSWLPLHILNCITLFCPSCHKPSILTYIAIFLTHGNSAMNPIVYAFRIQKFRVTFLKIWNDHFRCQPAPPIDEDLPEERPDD
# Assay Remarks: A1 radioligand filtration binding assay (3H-DPCPX)
# Test Settings: membranes from CHO cells transfected with human A1 receptor; mean of at least two independent determinations; read-out: Ki hA1
# Method: For A1 receptors a filtration binding assay was performed with 2 nM ^3H-DPCPX, […] unlabelled R-PIA, membranes from CHO cells transfected with human A1 receptor (Euroscreen ES-010-C) and incubated 90 min. at room temperature in Hepes 20 mM pH 7.4, NaCl 100 mM, MgCl2 10 mM and 2 U/ml adenosin deaminase.
Measured Attribute: Ki (nM)
Express the result in nM but write the number alone.

Task item: Please report the recorded Ki for O=c1[nH]c2cc(-c3ccncc3F)c(-c3ccccc3F)nc2[nH]1 .
Reply: 35

====

Field: pKi. Provide a value for each of the molecules that follow.
# Study System: human A2A receptor (Homo sapiens, UniProt P29274)
# Construct: expressed in transfected cells; host or cells: HeLa
# Sequence (P29274 whole entry): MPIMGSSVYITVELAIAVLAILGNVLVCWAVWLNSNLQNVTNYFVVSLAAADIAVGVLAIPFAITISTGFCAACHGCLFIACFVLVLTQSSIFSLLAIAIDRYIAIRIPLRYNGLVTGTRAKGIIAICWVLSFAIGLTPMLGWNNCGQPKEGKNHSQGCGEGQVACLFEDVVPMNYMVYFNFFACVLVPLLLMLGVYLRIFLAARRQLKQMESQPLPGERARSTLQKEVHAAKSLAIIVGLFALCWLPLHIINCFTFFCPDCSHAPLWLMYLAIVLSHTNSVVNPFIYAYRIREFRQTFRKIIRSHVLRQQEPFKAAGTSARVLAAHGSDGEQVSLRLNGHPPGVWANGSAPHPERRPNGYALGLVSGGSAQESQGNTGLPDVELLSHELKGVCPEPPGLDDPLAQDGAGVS
# Assay Remarks: A2A radioligand SPA binding assay (3H-ZM241385)
# Test Settings: membranes from HeLa cells transfected with human A2A receptor; mean of at least two independent determinations; read-out: Ki hA2A
Lab note: report pKi as minus log10 of the concentration in molar units, number only.

Task item: So what does the record say about pKi for O=c1[nH]c2cc(-c3ccncc3Cl)c(-c3ccccc3F)nc2[nH]1 ?
Reply: 6.35

Task item: Any idea what its pKi is? The molecule is O=c1[nH]c2cc(-c3ccncc3F)c(-c3ccccc3F)nc2[nH]1
Reply: 6.14
